Tested on: Fibroblast
TEST_DESCRIPTION: Multiplex assay against human fibroblast
Format: toxicity, cell-based
CONDITION_NOTES: 48 h, 10 µM, compound concentration 10 uM, replicate 2
Labelling field: enter criterion met if recorded Population Tubulin-Different-Phenotype (%) is less than 80%. Enter criterion not met if it equals or exceeds that cut-off.

{"COMPOUND": "CN(C)C(=O)N[C@H]1CC[C@H](CCN2CCN(c3cccc(Cl)c3Cl)CC2)CC1.Cl [CARIPRAZINE HYDROCHLORIDE]", "CLASSIFICATION": "criterion not met"}
{"COMPOUND": "Cc1nc(-c2ccc(-c3ccc(C(=O)N4CCc5cc6c(cc54)C4(CCN(C)CC4)CO6)cc3)c(C)c2)no1", "CLASSIFICATION": "criterion met"}
{"COMPOUND": "COc1cccc([C@@H](C)NCCCc2ccccc2Cl)c1.Cl [TECALCET HYDROCHLORIDE]", "CLASSIFICATION": "criterion met"}
{"COMPOUND": "Cc1cc(C)cc(-c2cnc3cc(Cl)c(-c4cccc(O)c4)cc3c2OCCCN)c1", "CLASSIFICATION": "criterion not met"}
{"COMPOUND": "CN1CCN(CCOc2cc(OC3CCOCC3)c3c(Nc4c(Cl)ccc5c4OCO5)ncnc3c2)CC1", "CLASSIFICATION": "criterion not met"}
{"COMPOUND": "C=CC(=O)Nc1ccc2ncnc(Nc3ccc(OCc4cccc(F)c4)c(Cl)c3)c2c1.Cc1ccc(S(=O)(=O)O)cc1", "CLASSIFICATION": "criterion met"}

###

Tested on: U2OS
TEST_DESCRIPTION: Multiplex assay against U2OS
Type: toxicity, cell-based
CONDITION_NOTES: human, 24 h, 1 µM, compound concentration 1 uM, replicate 1
QUANTITY_KIND: Population Mitotic Cells (%)

{"COMPOUND": "COc1ncc(-c2ccc3nccc(-c4ccnnc4)c3c2)cc1NS(=O)(=O)c1ccc(F)cc1F [OMIPALISIB]", "ASSAY_VALUE": "37%"}
{"COMPOUND": "CN(C)C(=O)N[C@H]1CC[C@H](CCN2CCN(c3cccc(Cl)c3Cl)CC2)CC1.Cl [CARIPRAZINE HYDROCHLORIDE]", "ASSAY_VALUE": "58%"}
{"COMPOUND": "Cc1nc(-c2ccc(-c3ccc(C(=O)N4CCc5cc6c(cc54)C4(CCN(C)CC4)CO6)cc3)c(C)c2)no1 [SB-224289]", "ASSAY_VALUE": "46%"}
{"COMPOUND": "CC(C)NCC(O)COc1ccc(CCOCC2CC2)cc1.Cl (stereo not drawn) [BETAXOLOL HYDROCHLORIDE]", "ASSAY_VALUE": "71%"}
{"COMPOUND": "c1cn2cc(-c3ccc4cn[nH]c4c3)nc(Nc3ccc(N4CCOCC4)cc3)c2n1 [ENTOSPLETINIB]", "ASSAY_VALUE": "62%"}
{"COMPOUND": "CCN(CC)CCCCNc1ncc2cc(-c3cc(OC)cc(OC)c3)c(NC(=O)NC(C)(C)C)nc2n1 [PD-173074]", "ASSAY_VALUE": "29%"}
{"COMPOUND": "CN1CCCC(n2nc(Cc3ccc(Cl)cc3)c3ccccc3c2=O)CC1.Cl (stereo not drawn) [AZELASTINE HYDROCHLORIDE]", "ASSAY_VALUE": "66%"}
{"COMPOUND": "CC[C@H](C)C(=O)O[C@H]1C[C@@H](C)C=C2C=C[C@H](C)[C@H](CC[C@@H]3C[C@@H](O)CC(=O)O3)[C@H]21 [LOVASTATIN]", "ASSAY_VALUE": "81%"}
{"COMPOUND": "Cc1c(-c2ccc(O)cc2)n(Cc2ccc(OCCN3CCCCCC3)cc2)c2ccc(O)cc12 [BAZEDOXIFENE]", "ASSAY_VALUE": "76%"}
{"COMPOUND": "CNc1nc(NCc2ccc(NS(C)(=O)=O)cc2Cl)cc(-c2ccccn2)n1", "ASSAY_VALUE": "50%"}
{"COMPOUND": "CN(C)C(=O)/C(C#N)=C/c1ccc(-c2nc3cnc4[nH]ccc4c3n2C2CCCCC2)o1", "ASSAY_VALUE": "25%"}
{"COMPOUND": "COc1cccc([C@@H](C)NCCCc2ccccc2Cl)c1.Cl [TECALCET HYDROCHLORIDE]", "ASSAY_VALUE": "55%"}
{"COMPOUND": "CN1CCC[C@@H]1CCO[C@](C)(c1ccccc1)c1ccc(Cl)cc1.O=C(O)/C=C/C(=O)O [CLEMASTINE FUMARATE]", "ASSAY_VALUE": "44%"}
{"COMPOUND": "CN(C)CC#Cc1ccc(OCCCc2sc(N3CCc4cccc(C(=O)Nc5nc6ccccc6s5)c4C3)nc2C(=O)O)c(F)c1 [A-1155463]", "ASSAY_VALUE": "52%"}
{"COMPOUND": "Cc1[nH]c(/C=C2\\C(=O)Nc3ccc(S(=O)(=O)N(C)c4cccc(Cl)c4)cc32)c(C)c1C(=O)N1CCN(C)CC1", "ASSAY_VALUE": "26%"}
{"COMPOUND": "NC(=O)Nc1cc(-c2cccc(F)c2)sc1C(=O)N[C@H]1CCCNC1 [AZD-7762]", "ASSAY_VALUE": "60%"}
{"COMPOUND": "COc1cc(-n2cnc3cc(-c4ccc(Cl)cc4)sc3c2=O)ccc1OCCN1CCCC1", "ASSAY_VALUE": "43%"}
{"COMPOUND": "CN1CCN(c2ccc(OC(F)(F)F)c(Nc3ncc4c(n3)-c3c(c(C(N)=O)nn3CCO)CC4)c2)CC1 [ONVANSERTIB]", "ASSAY_VALUE": "64%"}
{"COMPOUND": "Cl.N#Cc1ccc2[nH]cc(CCCCN3CCN(c4ccc5oc(C(N)=O)cc5c4)CC3)c2c1 [VILAZODONE HYDROCHLORIDE]", "ASSAY_VALUE": "43%"}
{"COMPOUND": "C[C@@H](NCCCc1cccc(C(F)(F)F)c1)c1cccc2ccccc12.Cl [CINACALCET HYDROCHLORIDE]", "ASSAY_VALUE": "70%"}
{"COMPOUND": "CN1CCN(CCOc2cc(OC3CCOCC3)c3c(Nc4c(Cl)ccc5c4OCO5)ncnc3c2)CC1 [SARACATINIB]", "ASSAY_VALUE": "55%"}
{"COMPOUND": "Cn1cc(-c2[nH]c3cc(NC(=O)[C@H](N)C4CCCCC4)cc4c3c2C=NNC4=O)cn1", "ASSAY_VALUE": "53%"}
{"COMPOUND": "CC(C)(O)CNc1ncc(-c2ccnc(Nc3ccnc(Cl)c3)n2)c(CC2CC2)n1", "ASSAY_VALUE": "64%"}
{"COMPOUND": "Cc1nc(Nc2n[nH]c3c2CN(C(=O)N[C@H](CN(C)C)c2ccccc2)C3(C)C)c2sccc2n1 [PF-03758309]", "ASSAY_VALUE": "41%"}
{"COMPOUND": "OC1(c2ccc(Cl)cc2)CCN(Cc2c[nH]c3ccccc23)CC1", "ASSAY_VALUE": "50%"}
{"COMPOUND": "Cc1nc(-c2cn3c(n2)-c2ccc(-c4cnn(C(C)(C)C(N)=O)c4)cc2OCC3)n(C(C)C)n1 [TASELISIB]", "ASSAY_VALUE": "59%"}
{"COMPOUND": "CNCc1ccc(-c2cc(-c3nc(-c4ccc(S(=O)(=O)C(C)C)cc4)cnc3N)on2)cc1 [BERZOSERTIB]", "ASSAY_VALUE": "50%"}
{"COMPOUND": "O=C1NCN(c2ccccc2)C12CCN(CCCOc1ccc(F)cc1)CC2 [SPIRAMIDE]", "ASSAY_VALUE": "72%"}
{"COMPOUND": "C=CC(=O)Nc1cccc(C(=O)Nc2ccc(Nc3cc(-c4[nH]c(SC)nc4C)ccn3)cc2)c1", "ASSAY_VALUE": "60%"}
{"COMPOUND": "Cc1cc(C)cc(-c2cnc3cc(Cl)c(-c4cccc(O)c4)cc3c2OCCCN)c1", "ASSAY_VALUE": "64%"}
{"COMPOUND": "C[C@@]1(C(=O)Nc2ccc(F)nc2)CCCN1c1nc(Nc2cc(C3CC3)n[nH]2)c2cccn2n1 [BMS-754807]", "ASSAY_VALUE": "61%"}
{"COMPOUND": "C=CC(=O)Nc1cc2c(Nc3ccc(F)c(Cl)c3)ncnc2cc1OCCCN1CCOCC1.Cl.Cl [CANERTINIB DIHYDROCHLORIDE]", "ASSAY_VALUE": "0%"}
{"COMPOUND": "Cc1csc2c(N[C@@H](C)CN3CCN(S(=O)(=O)c4ccc(Cl)c(Cl)c4)CC3)ncnc12", "ASSAY_VALUE": "26%"}
